Source: patent US20210301005A1

Examples of binders with documented HEKBlue TGFβ blocking IC50 follow.
Molecular target: T1, human TGFβ2, mature receptor-binding domain (human, UniProt P09858 303-414 (pig entry), The mature TGFβ2 is a disulfide-linked homodimer of this 112-residue chain. The 4A11 epitope spans both monomers (p-1207).)
T1 sequence: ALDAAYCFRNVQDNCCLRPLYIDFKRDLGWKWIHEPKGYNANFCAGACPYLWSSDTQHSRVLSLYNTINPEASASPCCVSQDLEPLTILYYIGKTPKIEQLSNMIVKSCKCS
Assay: cell-based or functional assay
Attribute measured: HEKBlue TGFβ blocking IC50

binder="h2A10.v2.9 (antibody, human IgG1, kappa, N297G, V domains shown) VH: EVQLLESGGGLVQPGGSLRLSCAASGFDFNSYGMSWVRQAPGKGLELVADIVSKTYNYTTYYSDSVKDRFTISRDDSKSTLYLQMNSLRAEDTAVYYCTVAPGGSFDYWGQGTLVTVSS VL: DIQLTQSPSSLSASVGDRVTITCRASQSVSISRFNLMHWYQHKPGKQPKLLIYRASNLASGIPSRFSGSGSGTDFTLTISSLQPEDFATYYCQHSRESPWTFGGGTKVEIKR" attribute_measured="HEKBlue TGFβ blocking IC50" recorded_measurement="> 200 nM"
binder="2A10 (antibody, V domains shown, anti-TGFβ3; also called rat 2A10; r2A10) VH: EVQLVESGGGLVQPKGSLKLSCAASGFDFNSYGMSWVRQAPGKGLDLVADIVSKTYNYTTYYSDSVKDRFTISRDDSQSMVYLQMDNLKTEDTALYYCTVAPGGSFDYWGQGVMVTVSS VL: DIVLTQSPALAVSLGQRATISCRASQSVSISRFNLMHWYQHKPGQQPKLLIYRASNLASGIPARFSGSGSGTDFTLTINPVQADDLATYYCQHSRESPWTFGGGTKLEIK" attribute_measured="HEKBlue TGFβ blocking IC50" recorded_measurement="70 nM"
binder="h2A10.v2.5 (antibody, human IgG1, kappa, N297G, V domains shown) VH: EVQLLESGGGLVQPGGSLRLSCAASGFDFNSYGMSWVRQAPGKGLEWVADIVSKTYNYTTYYSDSVKDRFTISRDDSKSTVYLQMNSLRAEDTAVYYCTVAPGGSFDYWGQGTLVTVSS VL: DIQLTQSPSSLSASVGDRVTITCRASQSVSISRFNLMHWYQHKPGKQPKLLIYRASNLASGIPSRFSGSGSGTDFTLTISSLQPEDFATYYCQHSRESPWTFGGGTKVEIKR" attribute_measured="HEKBlue TGFβ blocking IC50" recorded_measurement="> 200 nM"
binder="h2A10.v2.6 (antibody, human IgG1, kappa, N297G, V domains shown) VH: EVQLLESGGGLVQPGGSLRLSCAASGFDFNSYGMSWVRQAPGKGLELVSDIVSKTYNYTTYYSDSVKDRFTISRDDSKSTVYLQMNSLRAEDTAVYYCTVAPGGSFDYWGQGTLVTVSS VL: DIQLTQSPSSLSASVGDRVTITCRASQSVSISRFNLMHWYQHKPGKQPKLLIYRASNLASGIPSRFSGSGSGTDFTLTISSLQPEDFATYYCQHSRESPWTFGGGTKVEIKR" attribute_measured="HEKBlue TGFβ blocking IC50" recorded_measurement="> 200 nM"
binder="h2A10.v2.7 (antibody, human IgG1, kappa, N297G, V domains shown) VH: EVQLLESGGGLVQPGGSLRLSCAASGFDFNSYGMSWVRQAPGKGLELVADIVSKTYNYTTYYSDSVKDRFTISRDNSKSTVYLQMNSLRAEDTAVYYCTVAPGGSFDYWGQGTLVTVSS VL: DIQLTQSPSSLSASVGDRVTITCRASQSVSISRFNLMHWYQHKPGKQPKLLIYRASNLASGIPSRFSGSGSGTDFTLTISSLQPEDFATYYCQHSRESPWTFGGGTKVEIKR" attribute_measured="HEKBlue TGFβ blocking IC50" recorded_measurement="> 200 nM"
binder="h2A10.v2.2 (antibody, human IgG1, kappa, N297G, V domains shown) VH: EVQLLESGGGLVQPGGSLRLSCAASGFDFNSYGMSWVRQAPGKGLELVADIVSKTYNYTTYYSDSVKDRFTISRDDSKSTVYLQMNSLRAEDTAVYYCTVAPGGSFDYWGQGTLVTVSS VL: DIQLTQSPSSLSASVGDRVTITCRASQSVSISRFNLMHWYQQKPGKQPKLLIYRASNLASGIPSRFSGSGSGTDFTLTISSLQPEDFATYYCQHSRESPWTFGGGTKVEIKR" attribute_measured="HEKBlue TGFβ blocking IC50" recorded_measurement="> 200 nM"
